- System: adipose tissues from male Zucker fatty (fa/fa) rats
- method.description: In vitro inhibition of lipogenesis in isolated adipose tissue
- Assay type: cell-based, rat
- study.conditions: peptide 0.3 μM, insulin 0.1 mU/ml
Bridges are numbered along the chain shown (N, C = ends). Where no end group is shown, it is not given here. [ ]: non-standard residue; d: D form. The star is where a group is joined. Acm = CC(=O)NC*
attribute.measured: In vitro lipogenesis Activity

substance	In vitro lipogenesis Activity
9611 (LRIVQARSVEGSCGF; listed as Homo sapiens) [Compound 9611]	Inactive
9406 (LRIVQCASVEGSCGF; listed as Homo sapiens) [Compound 9406]	Inactive
9604 (YLRIVQCRSVEGSCGF; disulfide 7-14; listed as Homo sapiens) [Compound 9604]	Active
9607 (ARIVQCRSVEGSCGF; disulfide 6-13; listed as Homo sapiens) [Compound 9607]	Active
9501 (LRIVQCRSVE[dA]SC[dA]F; disulfide 6-13; listed as Homo sapiens) [Compound 9501]	Active
9403 (LRKVQCRSVEGSCGF; disulfide 6-13; listed as Homo sapiens) [Compound 9403]	Active

Then there is this substance:
Field In vitro lipogenesis Activity (system: adipose tissues from male Zucker fatty (fa/fa) rats) for entry 9402 (LRIVQC(Acm)RSVEGSCGF; not fully specified (residue 13); listed as Homo sapiens) [Compound 9402] = Inactive

====

Collected In vitro lipogenesis, rate of [C14]-glucose incorporation into [C14]-lipid values appear next to each entry.
- Tested on: adipose tissues from male Zucker fatty (fa/fa) rats
- method.description: In vitro inhibition of lipogenesis in isolated adipose tissue
- Assay type: cell-based, rat
- study.conditions: peptide 0.3 μM, insulin 0.1 mU/ml, KRB buffer
Bridges are numbered along the chain shown (N, C = ends). Where no end group is shown, it is not given here. [ ]: non-standard residue; d: D form. Pen = CC(C)(S)[C@H](N)C(=O)O
Write the numeric value and append its unit.

Looking up 9401 (LRIVQCRSVEGSCGF; listed as Homo sapiens) [Compound 9401] , I see its In vitro lipogenesis, rate of [C14]-glucose incorporation into [C14]-lipid listed as 161 ± 10 nmol/g tissue/hr

Record 9604 (YLRIVQCRSVEGSCGF; disulfide 7-14; listed as Homo sapiens) [Compound 9604] . Reported In vitro lipogenesis, rate of [C14]-glucose incorporation into [C14]-lipid: 118 ± 16 nmol/g tissue/hr

Documented In vitro lipogenesis, rate of [C14]-glucose incorporation into [C14]-lipid of 9501 (LRIVQCRSVE[dA]SC[dA]F; disulfide 6-13; listed as Homo sapiens) [Compound 9501] : 185 ± 6 nmol/g tissue/hr

In vitro lipogenesis, rate of [C14]-glucose incorporation into [C14]-lipid in this record for 9502 (LRIVQ[Pen]RSVEGS[Pen]GF; disulfide 6-13; listed as Homo sapiens) [Compound 9502] : 174 ± 5 nmol/g tissue/hr

9607 (ARIVQCRSVEGSCGF; disulfide 6-13; listed as Homo sapiens) [Compound 9607] has a reported In vitro lipogenesis, rate of [C14]-glucose incorporation into [C14]-lipid of 198 ± 12 nmol/g tissue/hr

Sure, the documented In vitro lipogenesis, rate of [C14]-glucose incorporation into [C14]-lipid for 9617 (LRIVQCRSVEGSAGF; listed as Homo sapiens) [Compound 9617] is 223 ± 16 nmol/g tissue/hr

Item: 9605 (KLRIVQCRSVEGSCGF; disulfide 7-14; listed as Homo sapiens) [Compound 9605] | In vitro lipogenesis, rate of [C14]-glucose incorporation into [C14]-lipid: 184 ± 41 nmol/g tissue/hr

The measured values listed here are drawn from patent US6737407B1.
